- experimental conditions: in toluene, 303.66 K
quantity kind: solubility (mole fraction)
# respond with the number and nothing more

stdin: Give its solubility (mole fraction) value. Item: `CCCCCCCCCCCCCCCc1cccc(O)c1`
stdout: 0.228

====

- experimental conditions: in ethyl acetate, 300.12 K
quantity kind: solubility (mole fraction)
Number only, no unit.

stdin: I'd like to know its solubility (mole fraction). The compound in question is `CCCCCCCCCCCCCCCc1cccc(O)c1`
stdout: 0.352

====

- experimental conditions: in acetone, 291.32 K
quantity kind: solubility (mole fraction)
Respond with the number and no other words.

stdin: Could you tell me which solubility (mole fraction) is on file for `CCCCCCCCCCCCCCCc1cccc(O)c1` ?
stdout: 0.272

====

- experimental conditions: in ethanol, 293.83 K
quantity kind: solubility (mole fraction)
Keep the answer to the number alone.

stdin: Query (compound): `CCCCCCCCCCCCCCCc1cccc(O)c1` ; field requested: solubility (mole fraction)
stdout: 0.181

====

- experimental conditions: in toluene, 297.45 K
quantity kind: solubility (mole fraction)

stdin: Look up solubility (mole fraction): `CCCCCCCCCCCCCCCc1cccc(O)c1`
stdout: 0.14

====

- experimental conditions: in toluene, 305.47 K
quantity kind: solubility (mole fraction)
Answer with the value's number alone.

stdin: Reported solubility (mole fraction), compound `CCCCCCCCCCCCCCCc1cccc(O)c1` : ____
stdout: 0.262

====

- experimental conditions: in ethyl acetate, 302.14 K
quantity kind: solubility (mole fraction)
Keep the answer to the number alone.

stdin: Requested read-out: solubility (mole fraction). Entry: `CCCCCCCCCCCCCCCc1cccc(O)c1`
stdout: 0.38

====

- experimental conditions: in tetrachloromethane, 300.24 K
quantity kind: solubility (mole fraction)
Form: value (number only, do not type unit).

stdin: Looking for the measured solubility (mole fraction) of `CCCCCCCCCCCCCCCc1cccc(O)c1` , can you help?
stdout: 0.242

====

- experimental conditions: in acetone, 299.33 K
quantity kind: solubility (mole fraction)

stdin: Which solubility (mole fraction) is listed for `CCCCCCCCCCCCCCCc1cccc(O)c1` ?
stdout: 0.373

====

- experimental conditions: in ethyl acetate, 290.83 K
quantity kind: solubility (mole fraction)
Keep the answer to the number alone.

stdin: May I ask what solubility (mole fraction) has been recorded for `CCCCCCCCCCCCCCCc1cccc(O)c1` ?
stdout: 0.236

====

- experimental conditions: in ethanol, 297.55 K
quantity kind: solubility (mole fraction)

stdin: Need solubility (mole fraction) of `CCCCCCCCCCCCCCCc1cccc(O)c1` , thanks.
stdout: 0.228

====

- experimental conditions: in acetone, 289.08 K
quantity kind: solubility (mole fraction)
# print the numeric value only

stdin: Which measured solubility (mole fraction) value corresponds to `CCCCCCCCCCCCCCCc1cccc(O)c1` ?
stdout: 0.253

====

- experimental conditions: in acetone, 293.55 K
quantity kind: solubility (mole fraction)

stdin: What value of solubility (mole fraction) has been recorded for this entry: `CCCCCCCCCCCCCCCc1cccc(O)c1`
stdout: 0.309

====

- experimental conditions: in tetrachloromethane, 290.45 K
quantity kind: solubility (mole fraction)
// print number alone

stdin: Which solubility (mole fraction) is listed for `CCCCCCCCCCCCCCCc1cccc(O)c1` ?
stdout: 0.101

====

- experimental conditions: in tetrachloromethane, 296.55 K
quantity kind: solubility (mole fraction)
Form: value (number only, do not type unit).

stdin: What value of solubility (mole fraction) has been recorded for this entry: `CCCCCCCCCCCCCCCc1cccc(O)c1`
stdout: 0.18

====

- experimental conditions: in ethanol, 295.56 K
quantity kind: solubility (mole fraction)
Please respond with just the number, no unit label.

stdin: // lookup solubility (mole fraction) for `CCCCCCCCCCCCCCCc1cccc(O)c1`
stdout: 0.199

====

- experimental conditions: in acetone, 295.54 K
quantity kind: solubility (mole fraction)
Lab note: jot down the number only; don't add units.

stdin: Recorded solubility (mole fraction) of `CCCCCCCCCCCCCCCc1cccc(O)c1` , please.
stdout: 0.33

====

- experimental conditions: in n-butanol, 299.16 K
quantity kind: solubility (mole fraction)

stdin: Recorded solubility (mole fraction) of `CCCCCCCCCCCCCCCc1cccc(O)c1` , please.
stdout: 0.302

====

- experimental conditions: in acetone, 297.54 K
quantity kind: solubility (mole fraction)
# answer = number (no unit)

stdin: Which measured solubility (mole fraction) value corresponds to `CCCCCCCCCCCCCCCc1cccc(O)c1` ?
stdout: 0.351

====

- experimental conditions: in ethyl acetate, 295.86 K
quantity kind: solubility (mole fraction)
// print number alone

stdin: // solubility (mole fraction) lookup, key: `CCCCCCCCCCCCCCCc1cccc(O)c1`
stdout: 0.299

This collection of values is drawn from BigSolDB 2.1.
